# System: human SMAD7 mRNA
# test.details: Antisense inhibition of human SMAD7 mRNA expression in Hep3B cells by 3-10-3 cEt gapmers, 10,000 nM, electroporation (Example 2)
# Assay type: cell-based
# applied.conditions: Hep3B cells, electroporation with 10,000 nM antisense oligonucleotide, approximately 24 hours, SMAD7 mRNA by RT-PCR (RTS5062), relative to untreated control cells
Strand notation (5' to 3'): a small letter for the sugar, then the base; units joined by * are phosphorothioate-linked, units joined directly phosphodiester-linked; [ ] holds rarer units or linkages, { } end groups; capitals alone tell only the bases. k = constrained ethyl (cEt); [5mC] = 5-methylcytosine; d = 2'-deoxy (DNA)

[
  {
    "substance": "772573 (antisense kA*kG*k[5mC]*dA*d[5mC]*dA*d[5mC]*d[5mC]*dA*dG*d[5mC]*dT*d[5mC]*kG*kG*kG) [compound 772573]",
    "reading.unit": "%",
    "% Inhibition": 57
  },
  {
    "substance": "772590 (kT*kG*kT*dG*dA*d[5mC]*d[5mC]*dG*dA*dT*d[5mC]*d[5mC]*d[5mC]*k[5mC]*kA*kG; antisense) [compound 772590]",
    "reading.unit": "%",
    "% Inhibition": 37
  },
  {
    "substance": "799431 (antisense kG*kA*k[5mC]*dA*dG*d[5mC]*d[5mC]*dA*d[5mC]*dA*dA*dG*dT*k[5mC]*kA*k[5mC]) [compound 799431]",
    "reading.unit": "%",
    "% Inhibition": 39
  },
  {
    "substance": "830196 (antisense kT*kT*kA*dA*dT*dG*dG*d[5mC]*d[5mC]*d[5mC]*dA*dG*d[5mC]*k[5mC]*k[5mC]*kA) [compound 830196]",
    "reading.unit": "%",
    "% Inhibition": 31
  },
  {
    "substance": "798923 (kT*kT*kG*dA*dA*dG*dT*dG*dT*dG*dG*d[5mC]*d[5mC]*kT*kG*k[5mC]; antisense) [compound 798923]",
    "reading.unit": "%",
    "% Inhibition": 54
  },
  {
    "substance": "800088 (antisense kA*kA*kT*dG*dA*dG*dG*dG*dT*dG*dG*d[5mC]*dT*kT*kG*kG) [compound 800088]",
    "reading.unit": "%",
    "% Inhibition": 54
  },
  {
    "substance": "830140 (antisense kT*k[5mC]*k[5mC]*dT*dA*dA*dG*d[5mC]*dT*dA*d[5mC]*dT*dT*kG*kG*kT) [compound 830140]",
    "reading.unit": "%",
    "% Inhibition": 12
  },
  {
    "substance": "799947 (antisense kT*k[5mC]*kT*dA*dA*dA*dG*d[5mC]*d[5mC]*dA*d[5mC]*d[5mC]*dA*kA*kG*k[5mC]) [compound 799947]",
    "reading.unit": "%",
    "% Inhibition": 28
  },
  {
    "substance": "830190 (antisense kT*kA*kA*dT*d[5mC]*dA*dG*dA*dT*dG*d[5mC]*d[5mC]*dT*kG*k[5mC]*kT) [compound 830190]",
    "reading.unit": "%",
    "% Inhibition": 39
  },
  {
    "substance": "830195 (antisense kA*kA*k[5mC]*d[5mC]*dT*dT*dT*dT*d[5mC]*d[5mC]*dG*dG*dT*kA*kT*kT) [compound 830195]",
    "reading.unit": "%",
    "% Inhibition": 35
  },
  {
    "substance": "799389 (antisense kA*kA*kA*dA*d[5mC]*dG*d[5mC]*dA*dG*dG*dA*dG*dG*k[5mC]*kG*kG) [compound 799389]",
    "reading.unit": "%",
    "% Inhibition": 27
  },
  {
    "substance": "799887 (antisense k[5mC]*kA*kG*dG*dA*d[5mC]*dA*dG*dT*dT*dT*dT*dT*k[5mC]*k[5mC]*k[5mC]) [compound 799887]",
    "reading.unit": "%",
    "% Inhibition": 29
  }
]
